Parameter: inhibition. Scope: all listed entries.
Target: L-lactate dehydrogenase (Plasmodium falciparum (isolate CDC / Honduras)) (UniProt Q27743)
Sequence (Q27743 whole entry, looked up): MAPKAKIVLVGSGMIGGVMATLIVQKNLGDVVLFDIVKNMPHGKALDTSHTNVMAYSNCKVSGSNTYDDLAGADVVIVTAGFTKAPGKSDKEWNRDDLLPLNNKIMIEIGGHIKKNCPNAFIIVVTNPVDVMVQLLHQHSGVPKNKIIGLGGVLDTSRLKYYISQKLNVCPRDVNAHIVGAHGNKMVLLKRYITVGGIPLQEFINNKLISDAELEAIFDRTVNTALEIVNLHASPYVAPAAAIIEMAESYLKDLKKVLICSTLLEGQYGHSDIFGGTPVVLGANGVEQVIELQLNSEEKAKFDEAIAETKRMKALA
Assay: PfLDH activity inhibition – cell lysate, 3D7 strain, counter-screen for P. falciparum growth inhibition project (AID 2304);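 note: 0% = vehicle and 100% = reference inhibitor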
Settings: P. falciparum 3D7 crude extract, LDH APAD/NBT absorbance; at 2 µM; hits give high values
MEASURED PROPERTY: inhibition (%)

- CC[C@H]1CN2CC[C@@H]1C[C@H]2[C@H](O)c1cc(-c2cc(Cl)cc(Cl)c2)nc2ccc(OC)cc12: -1
- CCCCc1ccc2[nH]cc(C3=CCN(C)CC3)c2c1Br: -5
- CC[C@H]1CN2CC[C@@H]1C[C@H]2[C@H](O)c1cc(N2CCC(CO)CC2)nc2ccc(OC)cc12: -1
- COC(=O)c1ccc(CC(C)NCC(O)c2cccc(C(F)(F)F)c2)cc1F (centres undefined): 7
- C[C@H](Cc1ccc(OCCCCCCOc2ccccc2)cc1)NC[C@H](O)c1cccc(Cl)c1: 7
- O=C(NC1CCC(CN2CCC(c3c[nH]c4ccccc34)CC2)CC1)NC12CC3CC(CC(C3)C1)C2 (centres undefined): 7
- O=C(NC1CCC(CN2CCC(c3c[nH]c4ccccc34)CC2)CC1)c1cc2ccccc2o1 (centres undefined): 4
- Oc1ccc2[nH]cc(C3=CCN(Cc4ccccc4)CC3)c2c1: 7
- CN(c1cc(NC(=O)c2ccc(F)cc2)ccn1)C1CCN(Cc2cccc(C#N)c2)CC1: 1
- CC(Cc1ccc(C(C)(C)C)cc1)NCC(O)c1ccccc1 (centres undefined): 3
- CCCCC1(NC(=O)[C@H](CC(C)C)Nc2ccc(C#N)c3ccccc23)CCCCC1: 5
- O=C1c2ccccc2CCC1CCN1CC=C(c2c[nH]c3ccccc23)CC1 (centres undefined): 7
- COC(=O)c1ccc(CC(C)NCC(O)c2cccc(C(F)(F)F)c2)c(Cl)c1 (centres undefined): 1
- O=C(/C=C/c1ccc(Cl)c(Cl)c1)N1CCC(CN2CCC(c3c(-c4ccc(F)cc4)[nH]c4ccccc34)CC2)CC1: -3
- CC[C@H]1CN2CC[C@H]1C[C@@H]2[C@@H](O)c1cc(Cl)nc2ccc(OC)cc12: -2
- O=C(CC1CCCC1)N(CC1CCN(Cc2ccc(C(F)(F)F)cc2)CC1)c1ccc(N2CCOCC2)c(F)c1: -1
- O=c1c2ccccc2nc(C=Cc2ccc([N+](=O)[O-])cc2)n1-c1ccccn1: -1
- CC(Cc1ccc(OCc2ccccc2)c(Cl)c1)NCC(O)c1cccc(C(F)(F)F)c1 (centres undefined): -4
- O=C(Nc1cc(C(F)(F)F)cc(C(F)(F)F)c1)N1CCC(CN2CCC(c3c[nH]c4ccccc34)CC2)CC1: -1
